- Target or system: UniProtKB P05771
- Sequence (P05771 whole entry): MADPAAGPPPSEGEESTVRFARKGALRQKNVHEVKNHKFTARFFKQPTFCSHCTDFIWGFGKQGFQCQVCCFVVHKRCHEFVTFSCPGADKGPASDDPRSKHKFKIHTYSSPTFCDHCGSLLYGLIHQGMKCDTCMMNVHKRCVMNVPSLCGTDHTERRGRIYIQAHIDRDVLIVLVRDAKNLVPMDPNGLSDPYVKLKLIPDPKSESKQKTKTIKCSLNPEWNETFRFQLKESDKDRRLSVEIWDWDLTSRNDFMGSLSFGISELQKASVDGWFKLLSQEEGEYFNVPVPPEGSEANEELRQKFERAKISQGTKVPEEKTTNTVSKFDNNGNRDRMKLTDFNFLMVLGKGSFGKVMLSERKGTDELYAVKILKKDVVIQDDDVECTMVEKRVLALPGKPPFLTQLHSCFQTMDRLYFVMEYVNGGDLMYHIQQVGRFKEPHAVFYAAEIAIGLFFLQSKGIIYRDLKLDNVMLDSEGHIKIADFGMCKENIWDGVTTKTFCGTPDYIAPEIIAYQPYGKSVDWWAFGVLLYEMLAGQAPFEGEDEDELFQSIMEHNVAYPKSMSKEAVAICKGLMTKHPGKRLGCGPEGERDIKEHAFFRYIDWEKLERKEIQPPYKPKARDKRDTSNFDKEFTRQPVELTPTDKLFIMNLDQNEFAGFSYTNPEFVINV
- Assay procedure: Inhibition of partially purified recombinant human calcium sensitive protein kinase C beta 2
Reported metric: pIC50
One number for each entry, as −log10 of the molar value.

Molecule | pIC50
O=C(NC1CCCC1OC(=O)c1ccc(C(=O)c2c(O)cccc2C(=O)O)cc1)c1ccc(O)cc1 (centres undefined) | 5.35

Asked: Report pIC50 on UniProtKB P05771 for this entry: O=C(NC1CNCC1OC(=O)c1cc(O)c(C(=O)Nc2ccccc2C(=O)O)c(O)c1)c1ccc(O)cc1 (centres undefined)
Given back: 3.93

* * *

- Target or system: Protein kinase C alpha type (Homo sapiens, UniProt P17252)
- Assay procedure: Inhibition of partially purified recombinant human calcium sensitive protein kinase C alpha
Please provide measured IC50 for the entries that follow.
Answers are plain numbers, in µM.

Molecule | Target or system | Meas value
O=C(NC1CCCC1OC(=O)c1cc(O)c(C(=O)c2c(O)cccc2-c2nn[nH]n2)c(O)c1)c1ccc(O)cc1 (stereo not drawn) | Protein kinase C alpha type (Homo sapiens, UniProt P17252) | 0.34

The record that follows has no IC50 shown yet.
Asked: Quote IC50 reported for O=C(NC1CNCC1OC(=O)c1cc(O)c(C(=O)c2c(C(=O)O)ccc3ccccc23)c(O)c1)c1ccc(O)cc1 (stereo not drawn) please.
Given back: 7.8
